Biological target: native CB1 receptors (Rattus norvegicus, UniProt P20272)
Sequence (P20272 whole entry): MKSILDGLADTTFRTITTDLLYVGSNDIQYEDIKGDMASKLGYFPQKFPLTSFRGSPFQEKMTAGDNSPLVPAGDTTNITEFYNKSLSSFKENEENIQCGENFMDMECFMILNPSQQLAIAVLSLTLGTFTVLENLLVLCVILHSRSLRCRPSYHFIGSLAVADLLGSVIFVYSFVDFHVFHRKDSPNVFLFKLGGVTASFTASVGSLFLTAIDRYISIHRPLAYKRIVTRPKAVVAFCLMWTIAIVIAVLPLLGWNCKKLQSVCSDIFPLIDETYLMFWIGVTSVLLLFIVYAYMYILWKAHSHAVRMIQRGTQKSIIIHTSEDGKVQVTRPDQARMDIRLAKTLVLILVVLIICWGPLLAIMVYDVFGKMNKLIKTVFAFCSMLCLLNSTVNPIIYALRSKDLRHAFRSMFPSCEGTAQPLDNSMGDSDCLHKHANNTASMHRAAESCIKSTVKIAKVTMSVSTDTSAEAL
Experiment: CB1 receptor rat binding assay ([3H]SR141716A, rat brain membranes)
Settings: rat brain membranes, [3H]SR141716A; read-out: Binding rat pKi (converted)
Reported Ki is given for each of the following compounds.
READOUT_NAME: Ki (nM)

INSERT INTO assay_data (compound, value_measured) VALUES
  ('O=C(NCc1ccccn1)c1ccc2c(c1)N=C(c1ccc(Cl)cc1)c1ccccc1S2 [drawing 1270]', 20),
  ('O=C(NCc1cccc(Cl)c1)c1ccc2c(c1)N=C(c1ccc(Cl)cc1)c1cc(F)ccc1S2 [drawing 1456]', 7.94),
  ('CC(NC(=O)c1ccc2c(c1)N=C(N1CCCCC1)c1ccccc1S2)c1ccccc1 (stereo not drawn)', 20),
  ('CCOCCNC(=O)c1ccc2c(c1)N=C(c1ccc(Cl)cc1)c1ccccc1S2 [drawing 1504]', 79.4),
  ('O=C(NCCc1ccc(Cl)cc1)c1ccc2c(c1)N=C(c1ccccc1)c1ccccc1S2 [drawing 1440]', 7.94),
  ('O=C(NCCc1ccc(Cl)cc1)c1ccc2c(c1)N=C(C1CCCCC1)c1ccccc1S2 [drawing 1280]', 2),
  ('O=C(NCCc1ccccc1)c1ccc2c(c1)N=C(c1ccccc1F)c1ccccc1S2 [drawing 1444]', 50.1),
  ('COc1ccc(C2=Nc3cc(C(=O)NCC(C)C)ccc3Sc3ccccc32)cc1 [drawing 1508]', 10),
  ('CCCCNC(=O)c1ccc2c(c1)N=C(c1ccc(Cl)cn1)c1ccc(F)cc1S2 [drawing 1317]', 25.1),
  ('Cc1cccc(C2=Nc3cc(C(=O)NCc4ccc(C)o4)ccc3Sc3ccccc32)n1 [drawing 1353]', 3.98),
  ('O=C(NCCCc1ccccc1)c1ccc2c(c1)N=C(c1ccccc1)c1ccccc1S2 [drawing 1450]', 7.94),
  ('COc1ccc(C2=Nc3cc(C(=O)NCc4ccncc4)ccc3Sc3ccccc32)cc1 [drawing 1412]', 39.8),
  ('CC(NC(=O)c1ccc2c(c1)N=C(c1ccc(Cl)cc1)c1ccccc1S2)c1ccccc1 (stereo not drawn) [drawing 1493]', 63.1),
  ('CC(C)CNC(=O)c1ccc2c(c1)N=C(c1ccccn1)c1ccccc1S2 [drawing 1217]', 158),
  ('O=C(NCCc1cccnc1)c1ccc2c(c1)N=C(c1ccc(F)cc1)c1ccccc1S2 [drawing 1203]', 12.6),
  ('O=C(NCCc1ccc(Cl)cc1)c1ccc2c(c1)N=C(N1CCC(F)(F)CC1)c1ccccc1S2 [drawing 1492]', 63.1),
  ('COc1ccc(C2=Nc3cc(C(=O)NCCC(C)C)ccc3Sc3ccccc32)cc1 [drawing 1351]', 3.98),
  ('O=C(NCc1ccc(Cl)cc1Cl)c1ccc2c(c1)N=C(N1CCCCC1)c1ccccc1S2 [drawing 1514]', 79.4),
  ('CC(C)NC(=O)c1ccc2c(c1)N=C(c1ccc(Cl)s1)c1ccccc1S2 [drawing 1445]', 50.1),
  ('Cc1cccc(C2=Nc3cc(C(=O)NC4CCC(F)(F)CC4)ccc3Sc3ccccc32)n1 [drawing 1425]', 6.31),
  ('CCCCNC(=O)c1ccc2c(c1)N=C(c1cccc(Cl)c1)c1cc(F)ccc1S2 [drawing 1447]', 7.94),
  ('O=C(NN1CCCCCC1)c1ccc2c(c1)N=C(c1ccc(Cl)cc1Cl)c1ccccc1S2 [drawing 1522]', 79.4),
  ('O=C(NCCC(F)(F)F)c1ccc2c(c1)N=C(c1cccc(F)c1)c1ccccc1S2 [drawing 1337]', 3.98),
  ('CCCCNC(=O)c1cc2c(cc1C)Sc1ccccc1C(c1ccc(Cl)cc1)=N2 [drawing 1243]', 15.8),
  ('O=C(NC1CCCC1)c1ccc2c(c1)N=C(c1cccc(Cl)c1)c1ccccc1S2 [drawing 1547]', 12.6),
  ('O=C(NCCc1ccncc1)c1ccc2c(c1)N=C(c1ccc(F)cc1)c1ccccc1S2 [drawing 1220]', 15.8),
  ('CCOC(=O)c1ccc(C2=Nc3cc(C(=O)NCc4ccccn4)ccc3Sc3ccccc32)cc1 [drawing 1476]', 63.1),
  ('CCCCNC(=O)c1ccc2c(c1)N=C(c1ccc(Cl)cc1Cl)c1ccccc1S2 [drawing 1406]', 39.8),
  ('CC(C)CNC(=O)c1ccc2c(c1)N=C(c1ccc(Cl)s1)c1ccc(F)cc1S2 [drawing 1359]', 3.98),
  ('O=C(NN1CCCCC1)c1ccc2c(c1)N=C(c1cccc(Cl)c1)c1ccccc1S2 [drawing 1380]', 31.6),
  ('O=C(NCc1ccc(F)cc1)c1ccc2c(c1)N=C(C1CCCCC1)c1ccccc1S2(=O)=O [drawing 1326]', 25.1),
  ('CCCCNC(=O)c1ccc2c(c1)N=C(c1ccc(Cl)s1)c1ccccc1S2 [drawing 1191]', 2.51),
  ('CCCCNC(=O)c1ccc2c(c1)N=C(C1CCCCC1)c1ccccc1S2 [drawing 1417]', 6.31);

###

Tested on: NSA mice
Assay: Hypothermia study (block of CP 55,940-induced hypothermia)
Type: in vivo
Design: unit not given here
Details: 3 mg/kg
READOUT_NAME: Hypothermia 3 mg/kg

INSERT INTO assay_data (compound, readout_name, value_measured) VALUES
  ('Cc1ccsc1C1=Nc2cc(C(=O)NCc3ccco3)ccc2Sc2ccccc21 [drawing 1639]', 'Hypothermia 3 mg/kg', 30),
  ('CC(C)CNC(=O)c1ccc2c(c1)N=C(c1ccc(Cl)cc1)c1ccc(F)cc1S2 [drawing 1556]', 'Hypothermia 3 mg/kg', 41),
  ('CC(C)CNC(=O)c1ccc2c(c1)N=C(c1ccc(Cl)s1)c1ccccc1S2 [drawing 1578]', 'Hypothermia 3 mg/kg', 73),
  ('O=C(NCc1ccccc1Cl)c1ccc2c(c1)N=C(c1cccc(Cl)c1)c1ccccc1S2 [drawing 1573]', 'Hypothermia 3 mg/kg', '−2');

###

Target: native CB1 receptors (Rattus norvegicus, UniProt P20272)
Experiment: CB1 receptor rat binding assay ([3H]SR141716A, rat brain membranes)
Conditions: rat brain membranes, [3H]SR141716A; read-out: Binding rat pKi (converted)
# key: entry, value: Ki
READOUT_NAME: Ki

INSERT INTO assay_data (compound, readout_name, value_measured) VALUES
  ('O=C(NCc1cccc(Cl)c1)c1ccc2c(c1)N=C(c1ccc(F)cc1)c1ccccc1S2 [drawing 1266]', 'Ki', '1.58 nM'),
  ('CC(C)CNC(=O)c1ccc2c(c1)N=C(c1ccc(Cl)s1)c1ccc(Cl)cc1S2 [drawing 1200]', 'Ki', '5.01 nM'),
  ('O=C(NN1CCCCC1)c1ccc2c(c1)N=C(c1ccc(F)c(Cl)c1)c1ccccc1S2 [drawing 1321]', 'Ki', '3.16 nM'),
  ('CCOCCNC(=O)c1ccc2c(c1)N=C(c1ccc(C#N)cc1)c1ccccc1S2 [drawing 1543]', 'Ki', '100 nM'),
  ('CC(C)CCNC(=O)c1ccc2c(c1)N=C(c1cccc(F)c1)c1ccccc1S2 [drawing 1240]', 'Ki', '0.794 nM'),
  ('O=C(NCc1ccccc1)c1ccc2c(c1)N=C(c1ccc(Cl)cc1)c1ccccc1S2 [drawing 1368]', 'Ki', '5.01 nM'),
  ('O=C(NCCc1ccc(Cl)cc1)c1ccc2c(c1)N=C(c1ccc(F)cc1)c1ccccc1S2 [drawing 1367]', 'Ki', '3.98 nM'),
  ('O=C(NCc1ccncc1)c1ccc2c(c1)N=C(c1cccc(Br)c1)c1ccccc1S2 [drawing 1511]', 'Ki', '79.4 nM');

###

Molecular target: CB1 (mutant) (Homo sapiens)
Sequence (P21554 1-417, change not shown): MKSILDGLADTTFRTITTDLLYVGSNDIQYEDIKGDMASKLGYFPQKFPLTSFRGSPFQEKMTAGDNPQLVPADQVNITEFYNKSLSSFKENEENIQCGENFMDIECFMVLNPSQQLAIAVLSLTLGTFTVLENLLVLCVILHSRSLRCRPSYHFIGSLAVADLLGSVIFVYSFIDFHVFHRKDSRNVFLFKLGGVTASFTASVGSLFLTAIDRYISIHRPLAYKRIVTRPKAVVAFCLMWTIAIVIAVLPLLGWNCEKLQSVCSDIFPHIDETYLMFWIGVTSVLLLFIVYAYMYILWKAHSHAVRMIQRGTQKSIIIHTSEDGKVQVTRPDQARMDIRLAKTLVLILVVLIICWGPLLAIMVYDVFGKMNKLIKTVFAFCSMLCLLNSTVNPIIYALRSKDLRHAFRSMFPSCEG
Test: R-SAT functional receptor assay, CB1 (mutant, truncated after amino acid 417)
Assay type: cell-based
Settings: Appendix A; R-SAT CB1; receptor form not stated; relative to SR141716 (100%); read-out: % Inhibition
Reported Emax values follow for various molecules
READOUT_NAME: Emax (%)

INSERT INTO measurements (molecule, value_measured) VALUES
  ('CCCC1=Nc2cc(C(=O)NCCCN3CCC(Cc4ccccc4)CC3)ccc2Sc2ccccc21', 115),
  ('CCCNC(=O)c1ccc2c(c1)N=C(c1ncccc1C)c1ccccc1S2', 63),
  ('CCONC(=O)c1ccc2c(c1)N=C(c1ccc(Cl)cc1Cl)c1ccccc1S2', 37),
  ('CCCC1=Nc2cc(C(=O)NCCN3CCCC3)ccc2Sc2ccccc21', 138),
  ('CCOCCNC(=O)c1ccc2c(c1)N=C(c1cccc(Br)c1)c1ccccc1S2 [drawing 789]', 119),
  ('O=C(NCc1cccnc1)c1ccc2c(c1)N=C(c1ccccn1)c1ccccc1S2', 67),
  ('C[C@@H]1CCC[C@H](C)N1NC(=O)c1ccc2c(c1)N=C(c1ccc(Cl)cc1F)c1ccccc1S2 [drawing 811]', 103),
  ('CC(C)CNC(=O)c1ccc2c(c1)N=C(c1ccc(Cl)cc1)c1ccc(Cl)cc1S2 [drawing 1113]', 106),
  ('CCCCNC(=O)c1ccc2c(c1)N=C(c1ccc(Cl)cc1Cl)c1ccccc1S2 [drawing 1165]', 98),
  ('COc1ccc(C2=Nc3cc(C(=O)NCCC(C)C)ccc3Sc3ccccc32)cc1 [drawing 965]', 104),
  ('CCCC1=Nc2cc(C(=O)NCCCSC3CCCCC3)ccc2Sc2ccccc21', 95),
  ('O=C(NCCc1cccnc1)c1ccc2c(c1)N=C(c1ccccc1F)c1ccccc1S2', 110),
  ('CONC(=O)c1ccc2c(c1)N=C(c1cccc(Br)c1)c1ccccc1S2', 73),
  ('CC(C)NC(=O)c1ccc2c(c1)N=C(c1ccc(F)cc1)c1ccccc1S2 [drawing 1079]', 97),
  ('NS(=O)(=O)c1ccc(CNC(=O)c2ccc3c(c2)N=C(c2ccc(F)cc2)c2ccccc2S3)cc1 [drawing 812]', 83),
  ('O=C(NCCCC(F)(F)F)c1ccc2c(c1)N=C(c1ccsc1)c1ccccc1S2 [drawing 555]', 90),
  ('O=C(Cc1ccccc1)NNC(=O)c1ccc2c(c1)N=C(c1ccc(Cl)cc1)c1ccccc1S2 [drawing 588]', 85),
  ('O=C(NCc1ccc(F)cc1)c1ccc2c(c1)N=C(c1ccc(Cl)cc1)c1ccccc1S2 [drawing 589]', 106),
  ('CC(C)CNC(=O)c1ccc2c(c1)N=C(c1ccc(Cl)cn1)c1ccc(Cl)cc1S2 [drawing 1172]', 27),
  ('COc1ccc(C2=Nc3cc(C(=O)NC4CCCCC4)ccc3Sc3ccccc32)cc1 [drawing 1153]', 115),
  ('O=C(NCc1ccccn1)c1ccc2c(c1)N=C(c1ccc(F)cc1)c1ccccc1S2', 90),
  ('CCCC1=Nc2cc(C(=O)NCCCN(CC(C)C)CC(C)C)ccc2Sc2ccccc21', 103),
  ('CC(CNC(=O)c1ccc2c(c1)N=C(N1CCCCC1)c1cc(F)ccc1S2)c1ccccc1 (stereo not drawn) [drawing 1171]', 102),
  ('CCCC1=Nc2cc(C(=O)NCCCN3CCN(C4CCCCC4)CC3)ccc2Sc2ccccc21', 118),
  ('CCOCCNC(=O)c1ccc2c(c1)N=C(c1ccc(C#N)cc1)c1ccccc1S2 [drawing 788]', 74),
  ('CC(C)NC(=O)c1ccc2c(c1)N=C(c1cccc(F)c1)c1ccccc1S2 [drawing 1155]', 104),
  ('O=C(NN1CCCCC1)c1ccc2c(c1)N=C(c1ccc(Cl)c(F)c1)c1ccccc1S2 [drawing 991]', 110),
  ('COCCNC(=O)c1ccc2c(c1)N=C(c1ccccc1Cl)c1ccccc1S2', 62),
  ('O=C(NN1CCCCCC1)c1ccc2c(c1)N=C(c1ccccc1F)c1ccccc1S2 [drawing 578]', 87),
  ('CCCCN(C)C(=O)c1ccc2c(c1)N=C(c1ccc(OC)cc1)c1ccccc1S2', 97),
  ('CCCCC1=Nc2cc(C(=O)NC)ccc2Sc2ccccc21', 55),
  ('CCCC1=Nc2cc(C(=O)NC3CCCC(C)C3C)ccc2Sc2ccccc21 (stereo not drawn) [drawing 1115]', 101),
  ('CCCCNC(=O)c1cc2c(cc1O)Sc1ccccc1C(c1ccc(Cl)cc1)=N2 [drawing 552]', 95),
  ('O=C(NN1CCCCCC1)c1ccc2c(c1)N=C(c1cccc(F)c1)c1ccccc1S2 [drawing 697]', 106),
  ('CONC(=O)c1ccc2c(c1)N=C(c1ncccc1C)c1ccccc1S2', 8),
  ('CCN(CCNC(=O)c1ccc2c(c1)N=C(N1CCCCC1)c1ccccc1S2)c1ccccc1 [drawing 913]', 105);
